molecular target: UniProtKB P49760; assay: Inhibition of recombinant CLK2 (unknown origin) using Ser/Thr 6 peptide as substrate incubated for 1 hr in presence of ATP by FRET assay
Sequence (P49760 whole entry): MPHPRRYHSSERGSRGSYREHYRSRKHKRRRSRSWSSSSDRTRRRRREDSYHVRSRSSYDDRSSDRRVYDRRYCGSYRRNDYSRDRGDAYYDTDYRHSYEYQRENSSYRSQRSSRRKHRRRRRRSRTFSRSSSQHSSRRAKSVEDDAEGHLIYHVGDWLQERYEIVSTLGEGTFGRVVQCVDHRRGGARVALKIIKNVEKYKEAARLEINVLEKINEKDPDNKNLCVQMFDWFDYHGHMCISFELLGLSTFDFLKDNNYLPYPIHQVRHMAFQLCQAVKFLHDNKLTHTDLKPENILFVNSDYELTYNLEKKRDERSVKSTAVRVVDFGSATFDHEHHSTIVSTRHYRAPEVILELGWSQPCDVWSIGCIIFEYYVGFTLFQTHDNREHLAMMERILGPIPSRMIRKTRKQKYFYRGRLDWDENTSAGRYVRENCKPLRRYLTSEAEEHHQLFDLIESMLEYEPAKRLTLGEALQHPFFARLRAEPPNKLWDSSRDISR
pEC50: −log10 of the molar value.
Decision: pEC50 >= 8 yields criterion met, all other cases yield criterion not met.

API: above_or_equal(metric=pEC50, cutoff=8) for item Cc1nnc(-c2ccc3cnc(NC(=O)c4ccnc(C5=CCN(C)CC5)c4)cc3c2)s1
criterion met

API: above_or_equal(metric=pEC50, cutoff=8) for item O=C(Nc1cc2cc(-c3cncc(N[C@H]4CCNC[C@@H]4F)n3)ccc2cn1)C1CC1
criterion met

API: above_or_equal(metric=pEC50, cutoff=8) for item CN1CCN(c2ccc(NC(=O)c3n[nH]c4ccc(-c5cncc(NC(=O)c6c(F)cccc6F)c5)cc34)cn2)CC1
criterion met

API: above_or_equal(metric=pEC50, cutoff=8) for item Cc1n[nH]c2ccc(-c3cncc(O[C@H]4CCNC[C@H]4F)n3)cc12
criterion met

API: above_or_equal(metric=pEC50, cutoff=8) for item Fc1cccc(-c2ccnc3[nH]c(-c4n[nH]c5ccc(-c6cncc(CN7CCC(F)(F)C7)c6)cc45)nc23)c1
criterion not met

API: above_or_equal(metric=pEC50, cutoff=8) for item Cn1cc(-c2ccc3cnc(NC(=O)c4cnc5ccccc5c4)cc3c2)cn1
criterion met

API: above_or_equal(metric=pEC50, cutoff=8) for item Fc1cccc(-c2cncc3[nH]c(-c4n[nH]c5ncc(-c6cccnc6)cc45)nc23)c1
criterion met

API: above_or_equal(metric=pEC50, cutoff=8) for item CN(C)CCNc1cc(F)cc(-c2cccc3[nH]c(-c4n[nH]c5ccc(-c6cncc(CN7CCCCC7)c6)nc45)cc23)c1
criterion met

API: above_or_equal(metric=pEC50, cutoff=8) for item CCC(=O)Nc1cncc(-c2ccc3[nH]nc(-c4cc5c(N6CCCCC6)nccc5[nH]4)c3c2)c1
criterion met

API: above_or_equal(metric=pEC50, cutoff=8) for item Cc1n[nH]c2ccc(-c3cncc(O[C@H]4CCNCC4(F)F)n3)cc12
criterion met

API: above_or_equal(metric=pEC50, cutoff=8) for item NC1CN(c2cncc(-c3ccc4[nH]nc(-c5nc6ccncc6[nH]5)c4c3)n2)C1
criterion met

API: above_or_equal(metric=pEC50, cutoff=8) for item Cc1n[nH]c2ccc(-c3cncc(N[C@H](CO)Cc4cccc(C(F)(F)F)c4)n3)cc12
criterion not met

API: above_or_equal(metric=pEC50, cutoff=8) for item CN1CCN(c2ccc(C(=O)N3CCN(c4cc(C(=O)Nc5cc6cc(-c7cnn(C)c7)ccc6cn5)ccn4)CC3)cn2)CC1
criterion met

API: above_or_equal(metric=pEC50, cutoff=8) for item Cc1ccc(C(=O)Nc2c[nH]nc2C(=O)Nc2ccc(OCCN3CCCC3)nc2)cn1
criterion not met
